Taken from paper PMC5540273.

Tested on: STK16
Settings: concentration: 1 μM, replicates: in singlicate; n = 1;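 note: KINOMEscan kinase panel screen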
Each entry gets 0 (no) if its %Inh stays under 8%, and 1 (yes) if its %Inh is 8% or above.

Cl.O=S(=O)(c1cccc(F)c1)c1ccc(Nc2ncnc3cc(Br)sc23)cc1Cl 1 (yes)
Cn1ccc2ncnc(Nc3ccc(Oc4cccc(Cl)c4)c(Cl)c3)c21 0 (no)
CC(=O)Nc1n[nH]c2ncc(-c3ccccc3)cc12 1 (yes)
Clc1cc(Nc2ncnc3cc[nH]c23)ccc1OCc1ccccn1 1 (yes)
CC(C)N1CCC(n2cnc(-c3ccc(F)cc3)c2-c2ccnc(N)n2)CC1 0 (no)

Hi team, for FC(F)(F)c1cc(Nc2nccc(-c3c(-c4ccc(Cl)cc4)nn4ncccc34)n2)ccc1Cl , is the recorded %Inh at or above 8%?
0 (no)

Hi team, for Cl.c1ccc(Cn2ncc3cc(Nc4ncnc5ccccc45)ccc32)cc1 , is the recorded %Inh at or above 8%?
1 (yes)

Hi team, for Cc1ccc(C)c(NC(=O)NCCNc2ccnc(Nc3ccc(F)cc3)n2)c1 , is the recorded %Inh at or above 8%?
1 (yes)

* * *

Tested on: SGK3
Settings: concentration: 1 μM, replicates: in singlicate; n = 1
Each entry gets NOT MET if its %Inh stays under 3%, and MET if its %Inh is 3% or above.

Molecule	Group Label
Nc1nccc2scc(-c3ccc4c(c3)CCN4C(=O)Cc3cc(F)ccc3F)c12 [GSK2587663]	NOT MET
Oc1ccc2ncnc(Nc3ccc(OCc4ccccc4)cc3)c2c1 [GI262866]	NOT MET
Cc1cccc(-c2nc(Nc3ccc4[nH]nnc4c3)c3ccccc3n2)n1 [GW867587]	NOT MET
CNc1nccc(-c2c(-c3ccc(F)cc3)ncn2C2CCN(C)CC2)n1 [SB-222903]	NOT MET
Nc1nc(-c2ccc3c(N)n[nH]c3c2)cc(N2CCC[C@@H](C(=O)Nc3ccccc3)C2)n1.O=C(O)C(F)(F)F.O=C(O)C(F)(F)F [GSK2288359]	MET

Hi team, for O=C(Nc1ccccc1F)NC1CCN(c2ccnc(Nc3ccc(F)cc3)n2)C1 (stereo not drawn) [GSK1379722] , is the recorded %Inh at or above 3%?
NOT MET

Hi team, for Cn1ccc2ncnc(Nc3ccc(Oc4cccc(Cl)c4)c(Cl)c3)c21 , is the recorded %Inh at or above 3%?
MET

Hi team, for Cl.Cn1ccc(-c2cccc(Nc3ccnc4cc(-c5nccs5)ccc34)c2)n1 [GW525701] , is the recorded %Inh at or above 3%?
MET

Hi team, for Nc1nc(-c2ccc3c(N)n[nH]c3c2)cc(N2CCCCC2)n1 [GSK2228768] , is the recorded %Inh at or above 3%?
NOT MET

Hi team, for C[C@H]1CC[C@@H](C(=O)Nc2ccccc2)CN1c1cc(-c2ccc3c(N)n[nH]c3c2)nc(N)n1 [GSK2283293] , is the recorded %Inh at or above 3%?
MET

Hi team, for COC(=O)c1cccc(NC(=O)NCCNc2ccnc(Nc3ccc(F)cc3)n2)c1 [GSK1379883] , is the recorded %Inh at or above 3%?
NOT MET

* * *

Tested on: MAP3K2
Settings: concentration: 1 μM, replicates: in singlicate; n = 1
Endpoint: %Inh
Hi, when you answer, please include the unit after the number. Thanks!

Example results:
C[C@H]1CC[C@@H](C(=O)Nc2ccccc2)CN1c1cc(-c2ccc3c(N)n[nH]c3c2)nc(N)n1 0%
COc1cc2c(Nc3cccc(NC(=O)c4ccccc4)c3)ncnc2cc1OCCCN1CCOCC1 6%
Cc1cc(N2CCC(NS(=O)(=O)c3ccc(F)cc3)CC2)nc(Nc2cccc(C#N)c2)n1.O=C(O)C(F)(F)F 60%
CNc1nccc(-c2c(-c3ccc(F)cc3)ncn2C2CCN(C)CC2)n1 0%
Cn1cc(-c2ccc3c(c2)CCN3C(=O)Cc2cccc(C(F)(F)F)c2)c2c(N)ncnc21 9%
CCC(CC)(CC)n1cnc2c(N)ncnc21 40%

List reported %Inh for each of these compounds:
1. Cc1ccc(C)c(NC(=O)NCCNc2ccnc(Nc3ccc(F)cc3)n2)c1
2. CN1c2ccc(-c3ccc(C(=O)NCCO)cc3)cc2-c2[nH]ncc2S1(=O)=O

1: 0%; 2: 36%

Lab request: please report %Inh under test system MAP3K2 for CNc1nccc(-c2c(-c3ccc(F)cc3)ncn2CCCN2CCOCC2)n1
5%
